The reported numbers originate from patent US9630922B2.

Biological target: HDAC6 (Homo sapiens, UniProt Q9UBN7)
Construct: Full length human recombinant HDAC6 protein was expressed in baculoviral system
Sequence (Q9UBN7 whole entry): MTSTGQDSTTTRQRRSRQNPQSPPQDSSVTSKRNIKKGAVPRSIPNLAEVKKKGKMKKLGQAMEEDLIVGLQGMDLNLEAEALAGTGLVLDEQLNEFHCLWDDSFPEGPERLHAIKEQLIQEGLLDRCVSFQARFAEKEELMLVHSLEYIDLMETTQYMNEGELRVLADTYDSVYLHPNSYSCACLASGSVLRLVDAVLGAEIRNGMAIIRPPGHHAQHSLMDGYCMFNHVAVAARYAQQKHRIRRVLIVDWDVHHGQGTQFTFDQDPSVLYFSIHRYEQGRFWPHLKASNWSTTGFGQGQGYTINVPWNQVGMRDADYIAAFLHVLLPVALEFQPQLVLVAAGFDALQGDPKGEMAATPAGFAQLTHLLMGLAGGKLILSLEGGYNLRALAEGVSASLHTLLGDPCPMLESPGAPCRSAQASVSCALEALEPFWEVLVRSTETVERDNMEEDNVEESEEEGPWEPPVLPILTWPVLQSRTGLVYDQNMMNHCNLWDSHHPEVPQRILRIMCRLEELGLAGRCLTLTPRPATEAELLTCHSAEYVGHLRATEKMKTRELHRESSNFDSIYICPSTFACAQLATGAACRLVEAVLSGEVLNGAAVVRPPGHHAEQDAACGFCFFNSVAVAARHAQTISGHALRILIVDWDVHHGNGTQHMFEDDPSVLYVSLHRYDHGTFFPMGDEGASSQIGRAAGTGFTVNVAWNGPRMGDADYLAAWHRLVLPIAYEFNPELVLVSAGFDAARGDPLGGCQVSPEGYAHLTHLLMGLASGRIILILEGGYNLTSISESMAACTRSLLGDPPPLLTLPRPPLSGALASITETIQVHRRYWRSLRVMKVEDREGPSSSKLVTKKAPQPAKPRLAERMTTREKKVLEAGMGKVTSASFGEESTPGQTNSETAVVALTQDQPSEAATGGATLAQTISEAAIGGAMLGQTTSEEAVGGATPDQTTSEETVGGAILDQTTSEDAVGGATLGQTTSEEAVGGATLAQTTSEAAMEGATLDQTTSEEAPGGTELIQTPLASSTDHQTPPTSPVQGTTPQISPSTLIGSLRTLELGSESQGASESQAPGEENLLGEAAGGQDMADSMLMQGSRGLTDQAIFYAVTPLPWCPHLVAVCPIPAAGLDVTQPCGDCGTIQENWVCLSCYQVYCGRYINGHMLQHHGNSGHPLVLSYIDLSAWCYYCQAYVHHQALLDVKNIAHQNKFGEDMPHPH
Assay: In vitro Histone Deacetylase Assay (enzymatic HDAC6 electrophoretic mobility shift assay)
Conditions: full length human recombinant HDAC6, 1 nM enzyme, 2 μM peptide substrate RHKK(Ac)-NH2, 25° C.; read-out: HDAC6 activity range
Experimental: The enzymatic HDAC6 assay was performed using electrophoretic mobility shift assay. Full length human recombinant HDAC6 protein was expressed in baculoviral system and purified by affinity chromatography. […] The terminated assay plates were analyzed on LabChip® 3000 microfluidic electrophoresis instrument (Perkin Elmer/Caliper Life Sciences). The fluorescence intensity of the electrophoretically separated de-acetylated product and substrate peptide was measured. […]

molecule: CC#CCN1CC[C@@]2(CCc3cc(C(=O)NO)ccc3C2)C1=O [Compound I-63]
tgt: HDAC6 (Homo sapiens, UniProt Q9UBN7)
IC50: ≤ 100 nM

molecule: O=C(NO)c1ccc2c(c1)CC[C@]1(CCN(c3cccc4c3OCC4)C1=O)C2 [Compound I-96]
tgt: HDAC6 (Homo sapiens, UniProt Q9UBN7)
IC50: ≤ 100 nM

molecule: O=C(NO)c1ccc2c(c1)CC[C@]1(CCN(C/C=C/c3ccccc3)C1=O)C2 [Compound I-37]
tgt: HDAC6 (Homo sapiens, UniProt Q9UBN7)
IC50: ≤ 100 nM

molecule: O=C(NO)c1ccc2c(c1)CC[C@@]1(CCN(Cc3ccccc3C(F)(F)F)C1=O)C2 [Compound I-67]
tgt: HDAC6 (Homo sapiens, UniProt Q9UBN7)
IC50: 100 to 500 nM

molecule: O=C(NO)c1ccc2c(c1)CC[C@@]1(CCN(c3ccc(Cl)cn3)C1=O)C2 [Compound I-130]
tgt: HDAC6 (Homo sapiens, UniProt Q9UBN7)
IC50: ≤ 100 nM

molecule: COc1ccc(N2CC[C@@]3(CCc4cc(C(=O)NO)ccc4C3)C2=O)cn1 [Compound I-118]
tgt: HDAC6 (Homo sapiens, UniProt Q9UBN7)
IC50: ≤ 100 nM

molecule: O=C(NO)c1ccc2c(c1)CC[C@@]1(CCN(Cc3ccccc3Cl)C1=O)C2 [Compound I-68]
tgt: HDAC6 (Homo sapiens, UniProt Q9UBN7)
IC50: 100 to 500 nM

molecule: O=C(NO)c1ccc2c(c1)CC[C@@]1(CCN(c3cccnc3)C1=O)C2 [Compound I-11]
tgt: HDAC6 (Homo sapiens, UniProt Q9UBN7)
IC50: ≤ 100 nM

molecule: O=C(NO)c1ccc2c(c1)CC[C@]1(CCN(c3ccc(F)c(F)c3)C1=O)C2 [Compound I-119]
tgt: HDAC6 (Homo sapiens, UniProt Q9UBN7)
IC50: ≤ 100 nM

molecule: COc1ccc(CCN2CCC3(CCc4cc(C(=O)NO)ccc4C3)C2=O)cc1 (stereo not drawn) [Compound I-4]
tgt: HDAC6 (Homo sapiens, UniProt Q9UBN7)
IC50: ≤ 100 nM

molecule: O=C(NO)c1ccc2c(c1)CCC1(CC(=O)N(CC3COC3)C1)C2 (single isomer, unassigned) [Compound I-215]
tgt: HDAC6 (Homo sapiens, UniProt Q9UBN7)
IC50: ≤ 100 nM

molecule: Cc1nn(C)cc1N1CC[C@]2(CCc3cc(C(=O)NO)ccc3C2)C1=O [Compound I-98]
tgt: HDAC6 (Homo sapiens, UniProt Q9UBN7)
IC50: ≤ 100 nM

molecule: O=C(NO)c1ccc2c(c1)CC[C@@]1(CCN(c3cc(F)ccc3F)C1=O)C2 [Compound I-169]
tgt: HDAC6 (Homo sapiens, UniProt Q9UBN7)
IC50: ≤ 100 nM

molecule: COCCn1c(N2CC[C@@]3(CCc4cc(C(=O)NO)ccc4C3)C2=O)nc2ccccc21 [Compound I-13]
tgt: HDAC6 (Homo sapiens, UniProt Q9UBN7)
IC50: ≤ 100 nM

molecule: O=C(NO)c1ccc2c(c1)CC[C@]1(CCN(Cc3ccncc3)C1=O)C2 [Compound I-14]
tgt: HDAC6 (Homo sapiens, UniProt Q9UBN7)
IC50: > 500 nM

molecule: COc1ncccc1N1CC[C@@]2(CCc3cc(C(=O)NO)ccc3C2)C1=O [Compound I-146]
tgt: HDAC6 (Homo sapiens, UniProt Q9UBN7)
IC50: ≤ 100 nM

molecule: CN1CC[C@]2(CCc3cc(C(=O)NO)ccc3C2)C1=O [Compound I-104]
tgt: HDAC6 (Homo sapiens, UniProt Q9UBN7)
IC50: ≤ 100 nM

molecule: O=C(NO)c1ccc2c(c1)CC[C@@]1(CCN(Cc3ccc(S(=O)(=O)C(F)(F)F)cc3)C1=O)C2 [Compound I-107]
tgt: HDAC6 (Homo sapiens, UniProt Q9UBN7)
IC50: 100 to 500 nM

molecule: CC(C)N1CC[C@@]2(CCc3cc(C(=O)NO)ccc3C2)C1=O [Compound I-25]
tgt: HDAC6 (Homo sapiens, UniProt Q9UBN7)
IC50: ≤ 100 nM

molecule: O=C(NO)c1ccc2c(c1)CC[C@@]1(CCN(Cc3ccc(Cl)cc3)C1=O)C2 [Compound I-82]
tgt: HDAC6 (Homo sapiens, UniProt Q9UBN7)
IC50: ≤ 100 nM

molecule: O=C(NO)c1ccc2c(c1)CCC1(CCN(Cc3ccccc3)C1=O)O2 (stereo not drawn) [Compound I-232]
tgt: HDAC6 (Homo sapiens, UniProt Q9UBN7)
IC50: 100 to 500 nM

molecule: COc1ccc(C(=O)N2CCC3(CCc4cc(C(=O)NO)ccc4O3)CC2)cc1 [II-4]
tgt: HDAC6 (Homo sapiens, UniProt Q9UBN7)
IC50: > 500 nM

molecule: COc1ccc(CN2CCC3(CCc4cc(C(=O)NO)ccc4C3)C2)cc1 (stereo not drawn) [Compound I-3]
tgt: HDAC6 (Homo sapiens, UniProt Q9UBN7)
IC50: 100 to 500 nM

molecule: O=C(NO)c1ccc2c(c1)CC[C@@]1(CCN(Cc3c(Cl)cccc3Cl)C1=O)C2 [Compound I-75]
tgt: HDAC6 (Homo sapiens, UniProt Q9UBN7)
IC50: 100 to 500 nM

molecule: O=C(NO)c1ccc2c(c1)CC[C@@]1(CCN(Cc3cccnc3)C1=O)C2 [Compound I-19]
tgt: HDAC6 (Homo sapiens, UniProt Q9UBN7)
IC50: ≤ 100 nM

molecule: O=C(NO)c1ccc2c(c1)CCC1(CC(=O)N(CC3COC3)C1)C2 (single isomer, unassigned) [Compound I-217]
tgt: HDAC6 (Homo sapiens, UniProt Q9UBN7)
IC50: 100 to 500 nM

molecule: O=C(NO)c1ccc2c(c1)CCC1(CCNC1=O)O2 (stereo not drawn) [Compound I-236]
tgt: HDAC6 (Homo sapiens, UniProt Q9UBN7)
IC50: 100 to 500 nM
